Species on record: Homo sapiens
measurement protocol: Maximum Inhibition of anandamide transport(ANT) was determined against human lymphoma U937 cell at a dose of 50 uM
Type: functional, U-937
Hi there, I'd appreciate the recorded Max inhibition for every entry that follows.

Inquiry: # Max inhibition lookup, item CCCCC/C=C\C/C=C\C/C=C\C/C=C\CCCC(=O)N(Cc1cccs1)Cc1cccs1
Reply text: >85%

Inquiry: # Max inhibition lookup, item CCCCC/C=C\C/C=C\C/C=C\C/C=C\CCCC(=O)OCc1ccoc1
Reply text: >85%

Inquiry: # Max inhibition lookup, item CCCCC/C=C\C/C=C\C/C=C\C/C=C\CCCCNCc1ccoc1
Reply text: >85%

Inquiry: # Max inhibition lookup, item CCCCC/C=C\C/C=C\C/C=C\C/C=C\CCCC(=O)NCCc1cccs1
Reply text: >85%

Inquiry: # Max inhibition lookup, item CCCCC/C=C\C/C=C\C/C=C\C/C=C\CCCC(=O)NC(C)c1ccco1 (stereo unspecified)
Reply text: >85%

Inquiry: # Max inhibition lookup, item CCCCC/C=C\C/C=C\C/C=C\C/C=C\CCCC(=O)NCc1ccoc1
Reply text: >85%

Inquiry: # Max inhibition lookup, item CCCCC/C=C\C/C=C\C/C=C\C/C=C\CCCC(=O)NC(C)Cc1cccs1 (stereo unspecified)
Reply text: 66%

Inquiry: # Max inhibition lookup, item CCCCC/C=C\C/C=C\C/C=C\C/C=C\CCCC(=O)OCCc1ccsc1
Reply text: 75%

Inquiry: # Max inhibition lookup, item CCCCC/C=C\C/C=C\C/C=C\C/C=C\CCCC(=O)OCc1ccco1
Reply text: >85%

Inquiry: # Max inhibition lookup, item CCCCC/C=C\C/C=C\C/C=C\C/C=C\CCCC(=O)NCCc1ccsc1
Reply text: 60%

Inquiry: # Max inhibition lookup, item CCCCC/C=C\C/C=C\C/C=C\C/C=C\CCCC(=O)OC(C)c1ccco1 (stereo unspecified)
Reply text: 70%
